- test.protocol: amyloid nucleation score (Sup35N fusion, yeast selection) (log enrichment); library NNK2; higher = more nucleation; inactive = no reads after selection;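 further: zero at mode of non-aggregating sequences after 7 days selection at 30°C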
quantity.name: amyloid nucleation score
// no unit string in output, number only

Past entries and their recorded results:
>  <biopolymer.sequence>
FTGYRAISASLGTYCLKSCG

>  <amyloid nucleation score>
-0.245

$$$$
>  <biopolymer.sequence>
YICVFLDSYLGHMYRPHWRV

>  <amyloid nucleation score>
1.91

$$$$
>  <biopolymer.sequence>
DPWRGGPVSSH

>  <amyloid nucleation score>
1.18

$$$$
>  <biopolymer.sequence>
SVVFDYCSGIVSRY

>  <amyloid nucleation score>
-0.483

$$$$
>  <biopolymer.sequence>
KGRYSGEGEIAFLQRVVGSG

>  <amyloid nucleation score>
0.434

$$$$
>  <biopolymer.sequence>
VKTKAVTRVMIP

>  <amyloid nucleation score>
0.589

$$$$

### Prompt // lookup amyloid nucleation score for "FCGIGSPHYGRSAALQLRLM"
### Response 0.708
